Documented GI50 across a set of molecules
System: KM12
experiment summary: Growth inhibition of human KM12 cells
Type: functional
Supply the numeric figure in nM, leaving out any unit text.

[
  {
    "smiles entry": "COc1cc(/C=C/C(=O)c2cccc(-n3cc(-c4ccc(Cl)cc4)[nH]c3=O)c2)cc(OC)c1OC",
    "readout name": "GI50",
    "quantitative readout": 5450
  },
  {
    "smiles entry": "COc1cc(/C=C/C(=O)c2cccc(-n3cc(-c4ccccc4)[nH]c3=O)c2)cc(OC)c1OC",
    "readout name": "GI50",
    "quantitative readout": 1370
  },
  {
    "smiles entry": "O=C(/C=C/c1cccc(O)c1)c1cccc(-n2cc(-c3ccc(Cl)cc3)[nH]c2=O)c1",
    "readout name": "GI50",
    "quantitative readout": 1340
  },
  {
    "smiles entry": "COc1ccc(-c2cn(-c3cccc(C(=O)/C=C/c4cc(OC)c(OC)c(OC)c4)c3)c(=O)[nH]2)cc1",
    "readout name": "GI50",
    "quantitative readout": 1420
  },
  {
    "smiles entry": "COc1cc(/C=C/C(=O)c2cccc(-n3cc(-c4ccccc4)[nH]c3=O)c2)ccc1O",
    "readout name": "GI50",
    "quantitative readout": 1610
  },
  {
    "smiles entry": "O=C(/C=C/c1cccc(O)c1)c1cccc(-n2cc(-c3ccccc3)[nH]c2=O)c1",
    "readout name": "GI50",
    "quantitative readout": 1830
  },
  {
    "smiles entry": "COc1cc(/C=C/C(=O)c2cccc(-n3cc(-c4ccc(Cl)cc4)[nH]c3=O)c2)ccc1O",
    "readout name": "GI50",
    "quantitative readout": 1480
  },
  {
    "smiles entry": "COc1cc(/C=C/C(=O)c2cccc(-n3cc(-c4cc(OC)c(OC)c(OC)c4)[nH]c3=O)c2)cc(OC)c1OC",
    "readout name": "GI50",
    "quantitative readout": 1120
  }
]

Any idea what its GI50 is? The molecule is COc1ccc(-c2cn(-c3cccc(C(=O)/C=C/c4ccc(O)c(OC)c4)c3)c(=O)[nH]2)cc1
1770

---

Test system: HCT-15
experiment summary: Growth inhibition of human HCT15 cells
Format: functional
Documented GI50 across a set of compounds
Please make sure the unit comes right after the number.

[
  {
    "smiles entry": "COc1cc(/C=C/C(=O)c2cccc(-n3cc(-c4ccccc4)[nH]c3=O)c2)cc(OC)c1OC",
    "GI50": "1130 nM"
  },
  {
    "smiles entry": "COc1ccc(-c2cn(-c3cccc(C(=O)/C=C/c4ccc(O)c(OC)c4)c3)c(=O)[nH]2)cc1",
    "GI50": "3150 nM"
  },
  {
    "smiles entry": "O=C(/C=C/c1cccc(O)c1)c1cccc(-n2cc(-c3ccccc3)[nH]c2=O)c1",
    "GI50": "3100 nM"
  },
  {
    "smiles entry": "O=C(/C=C/c1cccc(O)c1)c1cccc(-n2cc(-c3ccc(Cl)cc3)[nH]c2=O)c1",
    "GI50": "2330 nM"
  },
  {
    "smiles entry": "COc1ccc(-c2cn(-c3cccc(C(=O)/C=C/c4cc(OC)c(OC)c(OC)c4)c3)c(=O)[nH]2)cc1",
    "GI50": "1380 nM"
  },
  {
    "smiles entry": "COc1cc(/C=C/C(=O)c2cccc(-n3cc(-c4ccc(Cl)cc4)[nH]c3=O)c2)cc(OC)c1OC",
    "GI50": "3850 nM"
  },
  {
    "smiles entry": "COc1cc(/C=C/C(=O)c2cccc(-n3cc(-c4ccccc4)[nH]c3=O)c2)ccc1O",
    "GI50": "2730 nM"
  },
  {
    "smiles entry": "COc1cc(/C=C/C(=O)c2cccc(-n3cc(-c4ccc(Cl)cc4)[nH]c3=O)c2)ccc1O",
    "GI50": "1800 nM"
  }
]

Turning now to a further record.
API: value(readout=GI50, system=HCT-15) for record COc1cc(/C=C/C(=O)c2cccc(-n3cc(-c4cc(OC)c(OC)c(OC)c4)[nH]c3=O)c2)cc(OC)c1OC
1890 nM

---

System: ACHN
experiment summary: Growth inhibition of human ACHN cells
Format: functional
Threshold 2 µM. GI50 below it: t. GI50 at it or above: f.

Use the examples below as a reference point.
[
  {
    "smiles entry": "COc1cc(/C=C/C(=O)c2cccc(-n3cc(-c4ccccc4)[nH]c3=O)c2)ccc1O",
    "measured target": "ACHN",
    "class label": "f"
  },
  {
    "smiles entry": "COc1ccc(-c2cn(-c3cccc(C(=O)/C=C/c4ccc(O)c(OC)c4)c3)c(=O)[nH]2)cc1",
    "measured target": "ACHN",
    "class label": "f"
  },
  {
    "smiles entry": "COc1cc(/C=C/C(=O)c2cccc(-n3cc(-c4ccc(Cl)cc4)[nH]c3=O)c2)ccc1O",
    "measured target": "ACHN",
    "class label": "f"
  }
]

For this compound, is GI50 lower than 2 µM? COc1cc(/C=C/C(=O)c2cccc(-n3cc(-c4ccc(Cl)cc4)[nH]c3=O)c2)cc(OC)c1OC
f

Further, for O=C(/C=C/c1cccc(O)c1)c1cccc(-n2cc(-c3ccc(Cl)cc3)[nH]c2=O)c1 ?
t

Further, for COc1ccc(-c2cn(-c3cccc(C(=O)/C=C/c4cc(OC)c(OC)c(OC)c4)c3)c(=O)[nH]2)cc1 ?
t

---

System: NCI-H322M
experiment summary: Growth inhibition of human NCI-H322M cells
Assay type: functional
readout name: GI50
Please make sure the unit comes right after the number.

[
  {
    "smiles entry": "COc1ccc(-c2cn(-c3cccc(C(=O)/C=C/c4ccc(O)c(OC)c4)c3)c(=O)[nH]2)cc1",
    "result": "8.2 µM"
  }
]

Turning now to a further record.
Any idea what its GI50 is? The compound is COc1cc(/C=C/C(=O)c2cccc(-n3cc(-c4ccc(Cl)cc4)[nH]c3=O)c2)ccc1O
4.58 µM

---

Test system: SK-MEL-2
experiment summary: Growth inhibition of human SK-MEL-2 cells
Assay type: functional
readout name: GI50 (µM)
Supply the numeric figure in µM, leaving out any unit text.

Example entries and their recorded answers appear below.
[
  {
    "smiles entry": "COc1cc(/C=C/C(=O)c2cccc(-n3cc(-c4ccccc4)[nH]c3=O)c2)cc(OC)c1OC",
    "quantitative readout": 2.06
  },
  {
    "smiles entry": "COc1ccc(-c2cn(-c3cccc(C(=O)/C=C/c4ccc(O)c(OC)c4)c3)c(=O)[nH]2)cc1",
    "quantitative readout": 5.54
  },
  {
    "smiles entry": "COc1ccc(-c2cn(-c3cccc(C(=O)/C=C/c4cc(OC)c(OC)c(OC)c4)c3)c(=O)[nH]2)cc1",
    "quantitative readout": 2.63
  },
  {
    "smiles entry": "COc1cc(/C=C/C(=O)c2cccc(-n3cc(-c4ccc(Cl)cc4)[nH]c3=O)c2)ccc1O",
    "quantitative readout": 3.66
  },
  {
    "smiles entry": "O=C(/C=C/c1cccc(O)c1)c1cccc(-n2cc(-c3ccc(Cl)cc3)[nH]c2=O)c1",
    "quantitative readout": 2.07
  }
]

Turning now to a further record.
Any idea what its GI50 is? The compound is COc1cc(/C=C/C(=O)c2cccc(-n3cc(-c4cc(OC)c(OC)c(OC)c4)[nH]c3=O)c2)cc(OC)c1OC
3.02

---

Documented Activity across a set of compounds
Test system: MCF7
experiment summary: Cell cycle arrest in human MCF7 cells assessed as accumulation at S phase at 30 uM after 24 hrs by FACS analysis
Type: functional
Supply the numeric figure in %, leaving out any unit text.

Example entries and their recorded answers appear below.
[
  {
    "smiles entry": "COc1cc(/C=C/C(=O)c2cccc(-n3cc(-c4ccccc4)[nH]c3=O)c2)cc(OC)c1OC",
    "measured target": "MCF7",
    "unit": "%",
    "Activity": 5.6
  },
  {
    "smiles entry": "O=C(/C=C/c1cccc(O)c1)c1cccc(-n2cc(-c3ccc(Cl)cc3)[nH]c2=O)c1",
    "measured target": "MCF7",
    "unit": "%",
    "Activity": 13.7
  },
  {
    "smiles entry": "COc1ccc(-c2cn(-c3cccc(C(=O)/C=C/c4ccc(O)c(OC)c4)c3)c(=O)[nH]2)cc1",
    "measured target": "MCF7",
    "unit": "%",
    "Activity": 16
  },
  {
    "smiles entry": "COc1cc(/C=C/C(=O)c2cccc(-n3cc(-c4ccccc4)[nH]c3=O)c2)ccc1O",
    "measured target": "MCF7",
    "unit": "%",
    "Activity": 2.41
  },
  {
    "smiles entry": "COc1cc(/C=C/C(=O)c2cccc(N)c2)cc(OC)c1OC",
    "measured target": "MCF7",
    "unit": "%",
    "Activity": 9.31
  }
]

Turning now to a further record.
Any idea what its Activity is? The compound is O=C(/C=C/c1cccc(O)c1)c1cccc(-n2cc(-c3ccccc3)[nH]c2=O)c1
17.21
